Test system: STK36
Conditions: concentration: 1 μM, replicates: in singlicate; n = 1;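 note: KINOMEscan kinase panel screen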
Entries and their measured %Inh follow.
measured_metric: %Inh (%)

CN1CCN(Cc2ccc(NC(=O)Nc3ccc(N(C)c4ccnc(Nc5ccc(CS(C)(=O)=O)cc5)n4)cc3)cc2)CC1.Cl: 49
COc1cccc(NC(=O)NCCNc2ccnc(Nc3ccc(F)cc3)n2)c1: 0
O=C(O)C(F)(F)F.O=c1[nH]ccc2nc(N[C@@H]3CCNC3)nc(Nc3ccc4c(c3)S(=O)(=O)CC4)c12: 20
Cc1ccc(O)cc1Nc1ccnc2ccc(C(C)(C)C)cc12: 0

###

System: PRKD1
Conditions: concentration: 1 μM, replicates: in singlicate; n = 1
Entries and their measured %Inh follow.
measured_metric: %Inh (%)

Nc1ncnc2scc(-c3ccc(NC(=O)Cc4cc(F)ccc4F)cc3)c12.O=C(O)C(F)(F)F: 0
O=C(Nc1n[nH]c2nc(-c3cccc(O)c3)ccc12)C1CC1: 0
CC(C)c1nc(-c2ccc(F)c(NS(=O)(=O)c3c(F)cccc3F)c2)c(-c2ccnc(Nc3ccc(N4CCOCC4)nc3)n2)s1: 93.6
COc1ccc(C2=C(Nc3cccc(O)c3)C(=O)NC2=O)cc1: 0
COC(=O)Nc1nc2ccc(Oc3ccc(NC(=O)Nc4cc(C(F)(F)F)ccc4F)cc3)cc2[nH]1.Cl: 28
Cc1cc(-c2ccnc(Nc3cccc(C#N)c3)n2)cc(C)c1O: 0
Cc1ccc(NC(=O)c2ccnc(N3CCCCC3)c2)cc1-c1ccc(C(=O)NCC2CC2)cc1: 0
COc1cccc(C2=C(Nc3cccc(O)c3)C(=O)NC2=O)c1: 0
CCn1cnc2c(NCc3ccccc3)ncnc21: 0
CNc1nccc(-c2ccc3c(N)n[nH]c3c2)n1: 19
CN1CCN(Cc2ccc(NC(=O)Nc3ccc(N(C)c4ccnc(Nc5ccc(CS(C)(=O)=O)cc5)n4)cc3)cc2)CC1.Cl: 23
CC(C)(C)c1ccc(C(=O)Nc2cn3cc(-n4ccnc4)ccc3n2)cc1: 0
COc1cccc(CC(=O)N2CCc3cc(-c4cn(C)c5ncnc(N)c45)ccc32)c1: 18
O=C(O)C(F)(F)F.O=c1[nH]ccc2nc(N[C@@H]3CCNC3)nc(Nc3ccc4c(c3)S(=O)(=O)CC4)c12: 92.1
Cc1cc(-c2c(-c3ccc(F)cc3)ncn2CCCN2CCOCC2)nc(N)n1: 0
Cc1ccc(O)cc1Nc1ccnc2ccc(C(C)(C)C)cc12: 0
CN(c1ccc(NC(=O)Nc2cccc(Cl)c2)cc1)c1ccnc(N)n1.Cl: 0
Fc1cc(Cl)ccc1Nc1ccnc2cc(-c3ccc(CN4CCSCC4)o3)ccc12: 24
Cc1ccc(NC(=O)c2ccc(Cl)c(Cl)c2)cc1-c1ccc(C(=O)Nc2ccncc2)cc1: 15
CC(C)NCC(Cc1ccccc1)NC(=O)c1cc(Br)c(-c2ccnc3[nH]ccc23)s1.Cl.Cl (centres unmarked): 75
COC(=O)Nc1nc2cc(Oc3ccc(NC(=O)Nc4cccc(SC)c4)cc3)ccc2[nH]1.Cl: 3
CCn1c(-c2nonc2N)nc2c(-c3ccccc3)ncc(OCCCN)c21.O=C(O)C(F)(F)F.O=C(O)C(F)(F)F: 91.2
COc1cc(Nc2ccnc3cc(-c4ccncc4)ccc23)cc(OC)c1OC.Cl: 19
Cl.Cl.NC(CNC(=O)c1cc(Br)c(-c2ccnc3[nH]ccc23)s1)c1ccccc1 (centres unmarked): 0
Nc1ncc(-c2cn[nH]c2)c2scc(-c3ccc4c(c3)CCN4C(=O)Cc3ccccc3)c12: 0
COC(=O)Nc1nc2ccc(Oc3ccc(CC(=O)Nc4cc(C(F)(F)F)ccc4F)cc3)cc2[nH]1: 0
